Data provenance: the supplement of paper PMC11061612

tested on: MN-60 (B-Lymphoblastic Leukemia); experiment: Bliss excess, mean over the matrix (fraction); higher = more synergy
Answer each item with its documented Bliss excess.
Hey, just send me the number, nothing else.

Consider O=C(c1cc(Cc2n[nH]c(=O)c3ccccc23)ccc1F)N1CCN(C(=O)C2CC2)CC1 [Olaparib] + Cc1c2c(nn1C)CSCc1cc(n(C)n1)CSc1cc(c3ccccc3c1)OCCCc1c(C(=O)O)n(C)c3c-2c(Cl)ccc13 [AZD5991] (first compound max 10 µM, 7x7, partner max 1 µM) . Its measured Bliss excess is -0.0496

Bliss excess in this record for Cc1c2c(nn1C)CSCc1cc(n(C)n1)CSc1cc(c3ccccc3c1)OCCCc1c(C(=O)O)n(C)c3c-2c(Cl)ccc13 [AZD5991] + CC(=O)O[C@H]1C(=O)[C@@]2(C)[C@H]([C@H](OC(=O)c3ccccc3)[C@]3(O)C[C@H](OC(=O)[C@H](O)[C@@H](NC(=O)c4ccccc4)c4ccccc4)C(C)=C1C3(C)C)[C@]1(OC(C)=O)CO[C@@H]1C[C@@H]2O [Paclitaxel] (first compound max 1 µM, 7x7, partner max 3 µM) : -0.0293

Record CCN(CCO)CCCOc1ccc2c(Nc3cc(CC(=O)Nc4cccc(F)c4)[nH]n3)ncnc2c1 [AZD2811] + O=C(c1cc(Cc2n[nH]c(=O)c3ccccc23)ccc1F)N1CCN(C(=O)C2CC2)CC1 [Olaparib] (first compound max 1 µM, 7x7, partner max 10 µM) , field Bliss excess: -0.0206

The reported value for N#Cc1cnc(Nc2cc(NC[C@H]3CNCCO3)c(C(F)(F)F)cn2)cn1 [SRA737] + O=c1[nH]cc(F)c(=O)[nH]1 [5-Fluorouracil] (first compound max 10 µM, 7x7, partner max 20 µM) in terms of Bliss excess is -0.0751

The recorded Bliss excess for entry COc1nnc2ccc(N3CCC(c4ccc(OCCN5CCN(C)C(=O)[C@H]5C)cc4)CC3)nn12 [AZD5153] + C=CCn1c(=O)c2cnc(Nc3ccc(N4CCN(C)CC4)cc3)nc2n1-c1cccc(C(C)(C)O)n1 [AZD1775] (first compound max 1 µM, partner max 1 µM) equals -0.067

compound CCc1c2c(nc3ccc(O)cc13)-c1cc3c(c(=O)n1C2)COC(=O)[C@]3(O)CC [SN-38] + CN(C)CCCOc1ccc(-c2ccc3ncc4c(c3c2)n(C2CCOCC2)c(=O)n4C)cn1 [AZD0156] (first compound max 0.3 µM, 7x7, partner max 1 µM) , Bliss excess observed: 0.0279

Bliss excess for N#Cc1cnc(Nc2cc(NC[C@H]3CNCCO3)c(C(F)(F)F)cn2)cn1 [SRA737] + Nc1ccn([C@@H]2O[C@H](CO)[C@@H](O)C2(F)F)c(=O)n1 [Gemcitabine] (first compound max 10 µM, 7x7, partner max 0.3 µM) is -0.0116

---

tested on: KP-3 (Pancreatic Carcinoma); experiment: Bliss excess, mean over the matrix (fraction); higher = more synergy
Assign class by Bliss excess: not lower than -0.04 means label 1; lower than -0.04 means label 0.

Confirm if Bliss excess reported for the compound Cc1c2c(nn1C)CSCc1cc(n(C)n1)CSc1cc(c3ccccc3c1)OCCCc1c(C(=O)O)n(C)c3c-2c(Cl)ccc13 [AZD5991] + Cn1cnc2c(F)c(Nc3ccc(Br)cc3Cl)c(C(=O)NOCCO)cc21 [Selumetinib] (first compound max 1 µM, 7x7, partner max 3 µM) is -0.04 or above.
label 1

Is Bliss excess for CC1(C)CCC(CN2CCN(c3ccc(C(=O)NS(=O)(=O)c4ccc(NCC5CCOCC5)c([N+](=O)[O-])c4)c(Oc4cnc5[nH]ccc5c4)c3)CC2)=C(c2ccc(Cl)cc2)C1 [Venetoclax] + COc1cc(Nc2ncc3c(n2)-c2ccc(Cl)cc2C(c2c(F)cccc2OC)=NC3)ccc1C(=O)O [Alisertib] (first compound max 1 µM, 7x7, partner max 10 µM) at or above -0.04?
label 1

Tell me whether Bliss excess is at least -0.04 here: CCN(CCO)CCCOc1ccc2c(Nc3cc(CC(=O)Nc4cccc(F)c4)[nH]n3)ncnc2c1 [AZD2811] + C[C@@H]1COCCN1C2=NC(=NC(=C2)C3(CC3)[S@](=N)(=O)C)C4=C5C=CNC5=NC=C4 [AZD6738] (first compound max 1 µM, 7x7, partner max 10 µM)
label 0

Identify whether the reported Bliss excess of the following compound is -0.04 or greater: C[C@@H](c1ccc2nccn2c1)n1nnc2ncc(-c3cnn(C)c3)nc21 [Savolitinib] + Cc1c2c(nn1C)CSCc1cc(n(C)n1)CSc1cc(c3ccccc3c1)OCCCc1c(C(=O)O)n(C)c3c-2c(Cl)ccc13 [AZD5991] (first compound max 1 µM, 7x7, partner max 1 µM)
label 0

Decide: Bliss excess of CN(CCO)CC[C@H](CSc1ccccc1)Nc1ccc(S(=O)(=O)NC(=O)c2ccc(N3CCC([C@@H](O)c4ccccc4-c4ccc(Cl)cc4)CC3)cc2)cc1S(=O)(=O)C(F)(F)F [AZD4320] + C[C@@H](Nc1cc(F)cc(F)c1)c1cc(C(=O)N(C)C)cc2c(=O)cc(N3CCOCC3)oc12 [AZD8186] (first compound max 1 µM, 7x7, partner max 3 µM) >= -0.04?
label 1

Is the recorded value of Bliss excess equal to or greater than -0.04 for this compound? C[C@@H]1COCCN1c1cc(C2([S@](C)(=N)=O)CC2)nc(-c2ccnc3[nH]ccc23)n1 [AZD6738] + C1CC(C1)(C(=O)[O-])C(=O)[O-].N.N.[Pt+2] [Carboplatin] (first compound max 10 µM, 7x7, partner max 10 µM)
label 1

---

tested on: ESO51 (Esophageal Adenocarcinoma); test: combination Emax (second highest fraction inhibited in the dose matrix, 72 h); higher = more inhibition; extreme values may be limits of the assay
observable: combination Emax
Just the number, please.

Reading of combination Emax for CC1(C)CCC(CN2CCN(c3ccc(C(=O)NS(=O)(=O)c4ccc(NCC5CCOCC5)c([N+](=O)[O-])c4)c(Oc4cnc5[nH]ccc5c4)c3)CC2)=C(c2ccc(Cl)cc2)C1 [Venetoclax] + C1CN(CCC1(C(=O)N[C@@H](CCO)C2=CC=C(C=C2)Cl)N)C3=NC=NC4=C3C=CN4 [Capivasertib] (first compound max 1 µM, 7x7, partner max 3 µM) with ESO51 (Esophageal Adenocarcinoma): 0.11

With ESO51 (Esophageal Adenocarcinoma) as the test system, COc1cccc(OCCCN)c1-c1cc(Nc2cnc(C#N)cn2)n[nH]1 [Prexasertib] + C[C@@H]1COCCN1C2=NC(=NC(=C2)C3(CC3)[S@](=N)(=O)C)C4=C5C=CNC5=NC=C4 [AZD6738] (first compound max 1 µM, 7x7, partner max 10 µM) showed combination Emax of 0.779

---

Can you tell me Bliss excess for the items I'm about to list?
tested on: NCI-H2731 (Mesothelioma); experiment: Bliss excess, mean over the matrix (fraction); higher = more synergy
// response body must contain only the number

Looking up Cc1c2c(nn1C)CSCc1cc(n(C)n1)CSc1cc(c3ccccc3c1)OCCCc1c(C(=O)O)n(C)c3c-2c(Cl)ccc13 [AZD5991] + Nc1ccn([C@@H]2O[C@H](CO)[C@@H](O)C2(F)F)c(=O)n1 [Gemcitabine] (first compound max 1 µM, 7x7, partner max 0.3 µM) , I found its Bliss excess recorded as -0.0359

get_value(item= CN(CCO)CC[C@H](CSc1ccccc1)Nc1ccc(S(=O)(=O)NC(=O)c2ccc(N3CCC([C@@H](O)c4ccccc4-c4ccc(Cl)cc4)CC3)cc2)cc1S(=O)(=O)C(F)(F)F [AZD4320] + C[C@@H]1COCCN1C2=NC(=NC(=C2)C3(CC3)[S@](=N)(=O)C)C4=C5C=CNC5=NC=C4 [AZD6738] (first compound max 1 µM, 7x7, partner max 10 µM) , readout=Bliss excess) returns -0.0178

Summary for this compound, CC(=O)c1c(C)c2cnc(Nc3ccc(N4CCNCC4)cn3)nc2n(C2CCCC2)c1=O [Palbociclib] + Cc1c2c(nn1C)CSCc1cc(n(C)n1)CSc1cc(c3ccccc3c1)OCCCc1c(C(=O)O)n(C)c3c-2c(Cl)ccc13 [AZD5991] (first compound max 10 µM, 7x7, partner max 1 µM) : Bliss excess is -0.0484

Bliss excess reading for C[C@@H](Nc1cc(F)cc(F)c1)c1cc(C(=O)N(C)C)cc2c(=O)cc(N3CCOCC3)oc12 [AZD8186] + CC(=O)c1c(C)c2cnc(Nc3ccc(N4CCNCC4)cn3)nc2n(C2CCCC2)c1=O [Palbociclib] (first compound max 10 µM, 7x7, partner max 10 µM) : -0.0036

// recorded Bliss excess for C[C@@H]1COCCN1c1cc(C2([S@](C)(=N)=O)CC2)nc(-c2ccnc3[nH]ccc23)n1 [AZD6738] + C1CC(C1)(C(=O)[O-])C(=O)[O-].N.N.[Pt+2] [Carboplatin] (first compound max 10 µM, 7x7, partner max 10 µM) : -0.0109

Recorded Bliss excess (compound CCN(CCO)CCCOc1ccc2c(Nc3cc(CC(=O)Nc4cccc(F)c4)[nH]n3)ncnc2c1 [AZD2811] + C=CCn1c(=O)c2cnc(Nc3ccc(N4CCN(C)CC4)cc3)nc2n1-c1cccc(C(C)(C)O)n1 [AZD1775] (first compound max 1 µM, partner max 1 µM) ): 0.0089

Input Cc1c2c(nn1C)CSCc1cc(n(C)n1)CSc1cc(c3ccccc3c1)OCCCc1c(C(=O)O)n(C)c3c-2c(Cl)ccc13 [AZD5991] + C=CCn1c(=O)c2cnc(Nc3ccc(N4CCN(C)CC4)cc3)nc2n1-c1cccc(C(C)(C)O)n1 [AZD1775] (first compound max 1 µM, partner max 1 µM) . Output Bliss excess: -0.0336

The recorded Bliss excess for entry C[C@@H]1COCCN1c1cc(C2([S@](C)(=N)=O)CC2)nc(-c2ccnc3[nH]ccc23)n1 [AZD6738] + O=C(c1cc(Cc2n[nH]c(=O)c3ccccc23)ccc1F)N1CCN(C(=O)C2CC2)CC1 [Olaparib] (first compound max 10 µM, 7x7, partner max 10 µM) equals -0.0266

Per the record, N#Cc1cnc(Nc2cc(NC[C@H]3CNCCO3)c(C(F)(F)F)cn2)cn1 [SRA737] + Nc1ccn([C@@H]2O[C@H](CO)[C@@H](O)C2(F)F)c(=O)n1 [Gemcitabine] (first compound max 10 µM, 7x7, partner max 0.3 µM) has Bliss excess of 0.0907

Reported Bliss excess for CCc1c2c(nc3ccc(O)cc13)-c1cc3c(c(=O)n1C2)COC(=O)[C@]3(O)CC [SN-38] + O=C(c1cc(Cc2n[nH]c(=O)c3ccccc23)ccc1F)N1CCN(C(=O)C2CC2)CC1 [Olaparib] (first compound max 0.3 µM, 7x7, partner max 10 µM) was 0.0324

Looking up CC1(C)CCC(CN2CCN(c3ccc(C(=O)NS(=O)(=O)c4ccc(NCC5CCOCC5)c([N+](=O)[O-])c4)c(Oc4cnc5[nH]ccc5c4)c3)CC2)=C(c2ccc(Cl)cc2)C1 [Venetoclax] + C1CN(CCC1(C(=O)N[C@@H](CCO)C2=CC=C(C=C2)Cl)N)C3=NC=NC4=C3C=CN4 [Capivasertib] (first compound max 1 µM, 7x7, partner max 3 µM) , I found its Bliss excess recorded as -0.066

The reported Bliss excess of the compound Cc1cc2ncnn2cc1Nc1ncc2c(n1)n(C1CCOCC1)c(=O)n2C [AZD7648] + COc1cc([C@@H]2c3cc4c(cc3[C@@H](O[C@@H]3O[C@@H]5CO[C@@H](C)O[C@H]5[C@H](O)[C@H]3O)[C@H]3COC(=O)[C@H]23)OCO4)cc(OC)c1O [Etoposide] (first compound max 10 µM, 7x7, partner max 10 µM) was 0.08

Form field Bliss excess, entry CC(=O)c1c(C)c2cnc(Nc3ccc(N4CCNCC4)cn3)nc2n(C2CCCC2)c1=O [Palbociclib] + CC1(C)CCC(CN2CCN(c3ccc(C(=O)NS(=O)(=O)c4ccc(NCC5CCOCC5)c([N+](=O)[O-])c4)c(Oc4cnc5[nH]ccc5c4)c3)CC2)=C(c2ccc(Cl)cc2)C1 [Venetoclax] (first compound max 10 µM, 7x7, partner max 1 µM) : -0.0002
